# tested-target: Cannabinoid receptor 1 (Homo sapiens, UniProt P21554)
# Sequence (P21554 whole entry): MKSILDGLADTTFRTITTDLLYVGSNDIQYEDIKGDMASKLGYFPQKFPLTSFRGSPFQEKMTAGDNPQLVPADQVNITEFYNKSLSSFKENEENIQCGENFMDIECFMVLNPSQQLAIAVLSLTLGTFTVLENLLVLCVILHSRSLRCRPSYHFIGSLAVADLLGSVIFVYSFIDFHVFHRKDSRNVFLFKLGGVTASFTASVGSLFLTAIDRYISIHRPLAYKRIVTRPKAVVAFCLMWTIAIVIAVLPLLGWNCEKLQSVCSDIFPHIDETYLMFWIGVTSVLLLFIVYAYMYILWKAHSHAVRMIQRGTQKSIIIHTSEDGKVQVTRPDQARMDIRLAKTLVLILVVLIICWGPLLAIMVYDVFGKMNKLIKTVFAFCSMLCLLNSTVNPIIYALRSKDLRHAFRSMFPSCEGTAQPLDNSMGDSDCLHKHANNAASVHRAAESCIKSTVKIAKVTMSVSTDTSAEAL
# assay-explanation: Binding affinity to human cannabinoid CB1 receptor
measure: Ki (nM)
Output spec: scalar in nM, unitless text.

Look over these answered cases.
{"columns": ["compound-structure-string", "measure", "units-label", "measurement"],
 "data": [
  ["Cc1s/c(=N\\C(=O)C2C(C)(C)C2(C)C)n(CCO[11CH3])c1C", "Ki", "nM", 270],
  ["Cc1c(CCN2CCOCC2)c2cc(O[11CH3])ccc2n1C(=O)c1cccc(Cl)c1Cl", "Ki", "nM", 6000]
]}

# ---- query compound ----
Fill in: Ki of COc1ccc(S(=O)(=O)c2ccc([C@H](C)NS(C)(=O)=O)cc2)c(S(=O)(=O)c2ccc(O[11CH3])cc2)c1 is ___
79

###

# tested-target: Cannabinoid receptor 2 (Homo sapiens, UniProt P34972)
# Sequence (P34972 whole entry): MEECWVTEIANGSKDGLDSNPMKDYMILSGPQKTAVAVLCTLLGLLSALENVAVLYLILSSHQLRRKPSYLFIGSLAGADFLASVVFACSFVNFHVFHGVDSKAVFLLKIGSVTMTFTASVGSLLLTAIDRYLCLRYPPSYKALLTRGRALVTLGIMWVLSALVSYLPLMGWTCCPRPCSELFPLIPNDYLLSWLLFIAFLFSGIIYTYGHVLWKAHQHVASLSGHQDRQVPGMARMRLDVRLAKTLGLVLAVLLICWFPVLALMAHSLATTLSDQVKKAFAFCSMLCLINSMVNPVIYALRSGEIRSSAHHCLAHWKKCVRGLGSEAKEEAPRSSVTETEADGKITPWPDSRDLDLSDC
# assay-explanation: Binding affinity to human cannabinoid CB2 receptor
measure: pKi
// scale note: pKi = -log10(conc_M); give the bare number

{"columns": ["compound-structure-string", "pKi"],
 "data": [
  ["CCCCOc1c(OC)ccc2cc(C(=O)NCc3ccc([18F])cc3)c(=O)[nH]c12", 8.55],
  ["Cc1c(CCN2CCOCC2)c2cc(O[11CH3])ccc2n1C(=O)c1cccc(Cl)c1Cl", 7.46],
  ["COc1ccc(S(=O)(=O)c2ccc([C@H](C)NS(C)(=O)=O)cc2)c(S(=O)(=O)c2ccc(O[11CH3])cc2)c1", 8.35]
]}

Attention now shifts to the item below.
Can you look up the measured pKi of Cc1s/c(=N\C(=O)C2C(C)(C)C2(C)C)n(CCO[11CH3])c1C for me?
9.19

###

# tested-target: UniProt P34972
# assay-explanation: Displacement of [3H]CP-55,940 from human recombinant cannabinoid CB2 receptor expressed in CHO cells at 1 uM
# Type: cell-based
Respond with Satisfied for inhibition values of 10% and above, Not satisfied for values below.

Some solved entries appear below for comparison.
{"columns": ["compound-structure-string", "qualitative-label"],
 "data": [
  ["Cc1ccc(-c2noc(CCC(=O)Nc3ccc4c(c3)c3ccccc3n4CCCF)n2)cc1", "Satisfied"],
  ["Cc1ccc(-c2noc(CCC(=O)Nc3ccc4c(c3)c3ccccc3n4CCCO)n2)cc1", "Satisfied"],
  ["O=C(CCCc1nc(-c2ccc(F)cc2)no1)Nc1ccc2c(c1)c1ccccc1n2CCO", "Satisfied"],
  ["Cc1ccc(-c2noc(CCCC(=O)Nc3ccc4c(c3)c3ccccc3n4CCCO)n2)cc1", "Satisfied"],
  ["O=C(CCCc1nc(-c2ccc(F)cc2)no1)Nc1ccc2c(c1)c1ccccc1n2CCCO", "Satisfied"],
  ["O=C(CCc1nc(-c2ccc(Cl)cc2)no1)Nc1ccc2c(c1)c1ccccc1n2CCCF", "Satisfied"]
]}

For this molecule, is measured inhibition 10% or higher? O=C(CCCc1nc(-c2ccc(F)cc2Br)no1)Nc1ccc2c(c1)c1ccccc1n2CCO
Not satisfied

Hi, just wondering whether Cc1ccc(-c2noc(CCCC(=O)Nc3ccc4c(c3)c3ccccc3n4CCCF)n2)cc1 shows inhibition of 10% or higher.
Not satisfied

###

# tested-target: Cannabinoid receptor 2 (Homo sapiens, UniProt P34972)
# assay-explanation: Displacement of [3H]CP-55,940 from human recombinant cannabinoid CB2 receptor expressed in CHO cells at 1 uM
# Format: cell-based
Classify as follows. Reported inhibition greater than or equal to 9%: Met. Reported inhibition below: Not met.

Observe how each entry below is paired with its result.
{"columns": ["compound-structure-string", "tested-target", "qualitative-label"],
 "data": [
  ["O=C(CCCc1nc(-c2ccc(Cl)cc2)no1)Nc1ccc2c(c1)c1ccccc1n2CCF", "Cannabinoid receptor 2 (Homo sapiens, UniProt P34972)", "Met"],
  ["O=C(CCCc1nc(-c2ccc(F)cc2)no1)Nc1ccc2c(c1)c1ccccc1n2CCF", "Cannabinoid receptor 2 (Homo sapiens, UniProt P34972)", "Met"],
  ["O=C(CCc1nc(-c2ccc(F)cc2Br)no1)Nc1ccc2c(c1)c1ccccc1n2CCCCF", "Cannabinoid receptor 2 (Homo sapiens, UniProt P34972)", "Met"],
  ["O=C(CCCc1nc(-c2ccc(F)cc2Br)no1)Nc1ccc2c(c1)c1ccccc1n2CCCF", "Cannabinoid receptor 2 (Homo sapiens, UniProt P34972)", "Met"],
  ["Cc1ccc(-c2noc(CCCC(=O)Nc3ccc4c(c3)c3ccccc3n4CCO)n2)cc1", "Cannabinoid receptor 2 (Homo sapiens, UniProt P34972)", "Not met"]
]}

Please tell me: is the compound O=C(CCCc1nc(-c2ccc(F)cc2)no1)Nc1ccc2c(c1)c1ccccc1n2CCCF at or over 9% in terms of inhibition?
Not met

Reported inhibition at or above 9%? O=C(CCc1nc(-c2ccc(F)cc2)no1)Nc1ccc2c(c1)c1ccccc1n2CCCF
Met

Identify whether the reported inhibition of the following compound is 9% or greater: Cc1ccc(-c2noc(CCCC(=O)Nc3ccc4c(c3)c3ccccc3n4CCF)n2)cc1
Not met

Can Cc1ccc(-c2noc(CCC(=O)Nc3ccc4c(c3)c3ccccc3n4CCO)n2)cc1 be said to have inhibition at or above 9%?
Met

Is it the case that O=C(CCc1nc(-c2ccc(Br)cc2F)no1)Nc1ccc2c(c1)c1ccccc1n2CCO has inhibition reaching or exceeding 9%?
Met
